All figures here come from patent US20230012273A1.

# Target of assay: T1, cynomolgus SIRPβ1v3 (XP_005568593) extracellular domain + His-tag (cynomolgus monkey)
# T1 construct: SPR analyte; also called Cyno SIRPβ1v3 XP_005568593; cynoSIRPβ1v3; not shown: His-tag
# T1 chain: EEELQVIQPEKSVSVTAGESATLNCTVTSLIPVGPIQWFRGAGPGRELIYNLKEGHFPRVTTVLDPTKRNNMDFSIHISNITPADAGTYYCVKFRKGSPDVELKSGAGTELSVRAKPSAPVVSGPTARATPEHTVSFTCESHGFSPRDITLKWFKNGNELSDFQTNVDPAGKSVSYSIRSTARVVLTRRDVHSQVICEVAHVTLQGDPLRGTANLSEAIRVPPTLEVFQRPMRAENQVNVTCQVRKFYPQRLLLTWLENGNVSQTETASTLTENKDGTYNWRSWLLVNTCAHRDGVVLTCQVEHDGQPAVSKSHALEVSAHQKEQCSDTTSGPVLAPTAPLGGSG
# Assay overview: SPR, antibody captured, ECD-His analyte
Test readout: Kd (nM)
# value in nM; strip the unit string

Antibody E14 (antibody, human IgG1, kappa, L234A L235A, V domains shown) VH: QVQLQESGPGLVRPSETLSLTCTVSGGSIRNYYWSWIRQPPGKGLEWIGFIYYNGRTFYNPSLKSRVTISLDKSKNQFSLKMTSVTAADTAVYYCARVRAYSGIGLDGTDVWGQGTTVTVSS VL: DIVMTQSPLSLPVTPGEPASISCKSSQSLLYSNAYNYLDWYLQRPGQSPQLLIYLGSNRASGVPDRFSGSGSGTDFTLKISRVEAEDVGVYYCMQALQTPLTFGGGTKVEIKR : 51.9

Enquiry: Answer with the recorded Kd for the binder listed here: Antibody E4 (antibody, human IgG1, kappa, L234A L235A, V domains shown) VH: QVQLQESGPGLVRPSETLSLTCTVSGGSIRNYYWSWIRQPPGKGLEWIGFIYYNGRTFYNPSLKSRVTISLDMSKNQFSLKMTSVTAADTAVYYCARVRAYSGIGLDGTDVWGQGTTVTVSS VL: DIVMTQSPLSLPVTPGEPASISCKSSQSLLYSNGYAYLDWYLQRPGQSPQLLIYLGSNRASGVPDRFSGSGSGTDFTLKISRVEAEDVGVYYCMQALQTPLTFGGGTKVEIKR
Return: 13.1
